Test: yeast display, Sf9 membrane polyspecificity reagent, FACS + sequencing; frameworks hold sequencing errors

sequence_string: QVQHVESGGGLVQAGGSLRLSCAASGIIFDGNVMGWDRQAPGKEREFVASISISGGSTSYADSVKGRFTISRDNAKNTVYLQMNSLKPEDTAVYYCNTDVGYGRVCRWRYHGDYWGQGTQVTVSS
polyreactivity (PSR sort gate): low polyreactivity
//
sequence_string: QVQLVESGGGLVQAGGSLRLSCAASGRIFIYKAMGWYRQAPGKERELVAAISSSGTSTYYADSVKGRFTISRDNAKNTVYLQKNSLKPEDTAVYYCNAVYNYRWYSQGYYWGQGTQVTVSS
polyreactivity (PSR sort gate): high polyreactivity
//
sequence_string: QVQLVESGRGLVQAGGSLRLSCAASGIIFYENAMGWYRQAPGKERELVADITQSGGSTYYADSVKGRFTISRDNAKNTVYLQMNSLKPEDTAVYYCAADGYDPYGGLYDYWGQGTQVTVSS
polyreactivity (PSR sort gate): low polyreactivity
//
sequence_string: QVHLVESGGGLVQAGGSLRLSCAASGSNFARNAMGWYRHAPGKERELVAAITYSGGRTYYADSVKGRFTISRDNAKNTVYLQMNSLKPEDTAVFYCAVKSFSGHGDYWGQGTEVTVSS
polyreactivity (PSR sort gate): low polyreactivity
//
sequence_string: QVQLVESGGGLVQAGGSLRLSCAASGITFRRNAMGWYRQAPGKERELFAGITRGGTTKYADSVKGRFTISRDNAKNTVYLQMNSLKPEDTAVYFCAAKDNSYGGPPQFGYWGQGTQVTVSS
polyreactivity (PSR sort gate): high polyreactivity
//
sequence_string: QVQLVESGGGLVQAGGSLRLSCAASGIIFQQYAMGWYRQAPGKERELVAAITYSGDGTYYADSVKGRFTISRDNAKNTVYLQMNSLKPEDTAVYYCAAYPRDPYKEYDYWGQGTQVTVSS
polyreactivity (PSR sort gate): low polyreactivity
//
sequence_string: QVQLVESGGGLVQAGGSLRLSCAASGYIWCYAMGWDRQAPGKEWELVAAISWGGGSTYYADSVKGRFTISRDNAKNTVYLQMNSLKREDTAVYYCAAVDAVGPTSHAMYYWGLGTQVTVSS
polyreactivity (PSR sort gate): low polyreactivity
//
sequence_string: QVQLVESGGGLVQAGGSILLICSASGGNFYVYSMGWYRQAPGKERELVAAIRYSGGSTCYADSVKGRFTISRDNAKNTVYLLMNSLKTEYTAVYYCATVGWPFYPARDYDYSGQGTQVTVSS
polyreactivity (PSR sort gate): low polyreactivity
//
sequence_string: QVQLVESGGGVVQAGGSLRLSCAASGRNFVYNAMGLYRQAPGKERELVAAIYSGGRTYYADSVKGRFTISRDNAKNTVYFKMYSLKPEDTAVYYCAARWYVLPTQTRPYYGYYYWGQGTQVTVSS
polyreactivity (PSR sort gate): high polyreactivity
//
sequence_string: QVQLVESGGGLVQAGGSLRLSCAASGFIFGYNAMGWYRQAPGKEREFVAAISWTGGRTYYADSVKGRFTISRDNAKNTVYLQMNSLKPEDTAVYYCAALRGWLPGTRTRYYYWGQGTQVTVSS
polyreactivity (PSR sort gate): high polyreactivity
//
sequence_string: QVQLVESGGGLVQAGGSLRLSCAASGSIFGYYTMGWYRQAPGKERELVAAISQGGARTYYADSVKGRFTISRDNAKNTVYLQMNSLKPEDTAVYYCNAVSPAGYWFDYWGQGTQVTVSS
polyreactivity (PSR sort gate): high polyreactivity
//
sequence_string: QVQLVESGGGLVHAGGSLRLSCAASGSTFSYNAMGWYRQAHGKERELVAAITSSGSSTYYADSVKGRFTISRYNAKNTVYLQMNSLKPEDTAVYYCKAEVLFVAGQVQRNSGDYWGQGTQVSVSS
polyreactivity (PSR sort gate): low polyreactivity
//
sequence_string: QVQLVESGGGLVQAGGSLRLSCAASGRTLARYAMGGYRQAPGKERELVAAISSSGGSTYYADSVKGRFTISRDNAKNTVYLQMNSLKPEDTAVYYCAAGWRYRYFRSRNFYPYYYWGQGTQVTVSS
polyreactivity (PSR sort gate): high polyreactivity
//
sequence_string: QVQLVESGGGLVQAGGSLRLSCAASGRTFHRYAMGWYRPAPGKERELVAAISRGGITYYADSVKGRFTISRDNAKNTVYLQMNSLKPEDTAVYFCAALYRYYHESSPFDYWGQGTQVTVSS
polyreactivity (PSR sort gate): high polyreactivity
//
sequence_string: WLLLMGWYRQPPGEERELVAGINDGASTNDADSVKGRFTISRDNARNTVYLKMNSLKPGDTAVYYCAGWQPVLIWFYYWGQGTQVTVSS
polyreactivity (PSR sort gate): high polyreactivity
//
sequence_string: QVQLVESGGGLVQAGGSLRLSCADSGRTIDVYAMGWYRHAPGKEREFVAAISTGASTCYADSVKGRFTISRDNAKNTVYLQMNSLKTEDTGVYYCAKRVTRWYGYWGQGTQVTVSA
polyreactivity (PSR sort gate): high polyreactivity
//
sequence_string: QVQLVESGGGLVQAGGILRLSCAASGRITFSHNTMGWYIQAPGKERELVAAISSGGRTNYADSVKGRFTISRDNAKNTVYLQMNSLKPEDTAVYYCARESHYDFIYDGMDYWGQGTQVTVSS
polyreactivity (PSR sort gate): low polyreactivity
//
sequence_string: QVQLVESGGGLVQAGGSLRLTCAASGRIFTHNAMGWYRQAPGKVRELVAAITSGGRTTYADSVKGRFTISRDNAKNTVYLQMNSLKPEDSAVYDCNADTGLGSLDFDKRDYWGQGTQVTVSS
polyreactivity (PSR sort gate): low polyreactivity
//
sequence_string: QVQLVESGGGLVQAGGSLRLSCAASGRIFSHNAMGWYRQAPGKERELVASIRSSSGRTYYADSVKGRITISRDNAKNTVYLQMNSLTPEDTAVYYCAARQYSSKPYLYGYNYWGQGTQVTVSS
polyreactivity (PSR sort gate): high polyreactivity
//
sequence_string: QVQIVESGGGLVQAGVSLRLSCAASGLTIGVYAMGWYRQAPGKERELVAAISWSGGTTYYADSVKGRFTISRDNAKINFYLQMNSLKPEDTAVYYCAADYYTDVDYWGQGNQVTVSS
polyreactivity (PSR sort gate): low polyreactivity
//
sequence_string: QVQLVESGGGLVQAGGSLRLSCAASGRTFASYVMGWYRQAPGKERELVAAIDWHTGSTYYADSVKGRFTISRDNAKNTVYLQMNSLKPEDTAVYYCAAVYFLYPEGYWQTLYEYYYWGQGTQVTVSS
polyreactivity (PSR sort gate): low polyreactivity

Taken from the nanobody polyreactivity screen of Harvey et al. (2022).
